# Test system: RARa homodimer (NR concentration 270 nM)
# Test name: PBM binding z-score (relative to random genomic background probes); higher = stronger binding; sequences stand for … in GC…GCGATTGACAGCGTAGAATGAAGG
Returns one of satisfied or not satisfied; satisfied when PBM binding z-score is >= 0.3.

Req: Confirm if PBM binding z-score reported for the sequence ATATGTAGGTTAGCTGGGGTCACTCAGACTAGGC is 0.3 or above.
Resp: satisfied

Req: Confirm if PBM binding z-score reported for the sequence AGAGTGAGGTTATACGTAGATCAGGGAAGAAAGT is 0.3 or above.
Resp: satisfied

Req: Confirm if PBM binding z-score reported for the sequence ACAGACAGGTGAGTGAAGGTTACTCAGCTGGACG is 0.3 or above.
Resp: not satisfied

Req: Confirm if PBM binding z-score reported for the sequence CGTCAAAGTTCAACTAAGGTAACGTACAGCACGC is 0.3 or above.
Resp: satisfied

Req: Confirm if PBM binding z-score reported for the sequence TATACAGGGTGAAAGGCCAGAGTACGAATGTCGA is 0.3 or above.
Resp: satisfied

Req: Confirm if PBM binding z-score reported for the sequence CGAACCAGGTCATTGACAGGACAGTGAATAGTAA is 0.3 or above.
Resp: satisfied

Req: Confirm if PBM binding z-score reported for the sequence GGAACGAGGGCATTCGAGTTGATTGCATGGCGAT is 0.3 or above.
Resp: not satisfied

Req: Confirm if PBM binding z-score reported for the sequence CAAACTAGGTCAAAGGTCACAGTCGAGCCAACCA is 0.3 or above.
Resp: satisfied

Req: Confirm if PBM binding z-score reported for the sequence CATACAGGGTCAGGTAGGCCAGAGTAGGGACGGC is 0.3 or above.
Resp: satisfied

Req: Confirm if PBM binding z-score reported for the sequence TCTAGCAGGCCAGAGGGTCACTCAGGAGGTACGG is 0.3 or above.
Resp: not satisfied

Req: Confirm if PBM binding z-score reported for the sequence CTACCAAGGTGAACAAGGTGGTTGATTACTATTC is 0.3 or above.
Resp: not satisfied

Req: Confirm if PBM binding z-score reported for the sequence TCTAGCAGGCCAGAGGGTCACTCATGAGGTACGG is 0.3 or above.
Resp: not satisfied

Req: Confirm if PBM binding z-score reported for the sequence AGAACGAGGGCACGCTGAATTGATAGCAGAGTAG is 0.3 or above.
Resp: not satisfied

Req: Confirm if PBM binding z-score reported for the sequence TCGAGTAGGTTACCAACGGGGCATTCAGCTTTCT is 0.3 or above.
Resp: not satisfied

Req: Confirm if PBM binding z-score reported for the sequence ATATGTAAGTTAAGGGTCATTCAGGTTGGTTCGC is 0.3 or above.
Resp: satisfied

Req: Confirm if PBM binding z-score reported for the sequence TCATATAGGTAAAAGGTGTAAGTCGGTGTGGTAA is 0.3 or above.
Resp: satisfied

Req: Confirm if PBM binding z-score reported for the sequence CCTTACGGGTCACTCCAGGTTAAAGCATCGGAGT is 0.3 or above.
Resp: not satisfied

Req: Confirm if PBM binding z-score reported for the sequence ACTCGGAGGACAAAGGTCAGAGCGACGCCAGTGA is 0.3 or above.
Resp: satisfied

Req: Confirm if PBM binding z-score reported for the sequence CCTCGTTGGTCAGGAGGTCACACACCGGATATGA is 0.3 or above.
Resp: satisfied

Req: Confirm if PBM binding z-score reported for the sequence AGAACGAGGGCACGCTGAGGTGATAGCAGAGTAG is 0.3 or above.
Resp: not satisfied
